- Tested on: DMS-114
- method-description: NCI tumour cell line growth inhibition, 48 h
The source made the active and inactive calls. Cut-off read from the data, not from the text of the source: active = GI50 up to about 1.1 µM and inactive = higher.
Classes used: t for active, f for inactive

{"columns": ["molecule", "target-under-test", "group-label"],
 "data": [
  ["Cc1ccc(Oc2ccc(C(=O)c3cccc(C(=O)c4ccc(Oc5ccc(C)cc5)cc4)n3)cc2)cc1", "DMS-114", "f"],
  ["O=C(O)C(Cc1cccs1)NC(=O)C(F)(F)F (centres undefined)", "DMS-114", "f"],
  ["C[n+]1c2ccccc2c(NCC(=O)O)c2ccccc21", "DMS-114", "f"],
  ["NC1C(O)C(O)C(CO)OC1n1cc(F)c(=O)[nH]c1=O (centres undefined)", "DMS-114", "f"],
  ["O=C1N=CN=C2C=CC(Cl)=C(I)C12 (centres undefined)", "DMS-114", "f"],
  ["C[C@]12CC[C@H](OC3OC(CO)C(O)C(O)C3O)C[C@H]1CC[C@@H]1[C@@H]2CC[C@]2(C)[C@@H](C3=CCOC3=O)CC[C@]12O (some centres undefined)", "DMS-114", "f"],
  ["CC1=C(C2=C(C)C(=O)c3c(c(C=O)c(O)c(O)c3C(C)C)C2=O)C(=O)c2c(C=O)c(O)c(O)c(C(C)C)c2C1=O", "DMS-114", "f"],
  ["C/C=C(\\C)C(=O)OC1C2C(C)=CC(=O)C(O)C2(C)C2C3(O)OCC24C1OC(=O)C(OC(C)=O)C4C(C)C3O (centres undefined)", "DMS-114", "t"],
  ["O=C(NCCCl)O/N=C/c1cccnc1", "DMS-114", "f"],
  ["CC(=O)NC1C(OCc2ccccc2)OC(COC(=O)CCCCCCCCCCNc2ccc([N+](=O)[O-])c3[nH]c4ccccc4c(=O)c23)C(O)C1OC(C)C(=O)NC(C)C(=O)NC(CCC(N)=O)C(=O)OCc1ccccc1 (centres undefined)", "DMS-114", "f"],
  ["Cc1c2cc[n+](C)cc2c(C)c2c1[nH]c1ccc(OC(C)(C)C)cc12", "DMS-114", "f"],
  ["COc1ccc(C(c2ccc(C(C)C)cc(=O)c2O)c2ccc3cccnc3c2O)cc1 (centres undefined)", "DMS-114", "t"],
  ["CCOC(=O)C1S/C(=N\\c2ccc(Cl)cc2Cl)N=C1C (centres undefined)", "DMS-114", "f"],
  ["CN1C(=S)CSc2ccccc21", "DMS-114", "f"],
  ["Nc1ncnc2c1nc(Cl)n2[C@@H]1O[C@@H]2COP(=O)(O)O[C@H]2[C@H]1O", "DMS-114", "f"],
  ["CC1=C(C(=O)NCc2ccccc2)C(c2ccco2)C(C(=O)NCc2ccccc2)=C(C)N1", "DMS-114", "f"],
  ["O=S(=O)(c1ccccc1)N1CCC1c1ccccc1 (centres undefined)", "DMS-114", "f"],
  ["OCCN1CCN(CCO)Cc2ccccc2OCCOc2ccccc2C1", "DMS-114", "f"],
  ["CC(=O)OC1COC(N2CCc3ccccc32)C(OC(C)=O)C1OC(C)=O (centres undefined)", "DMS-114", "f"]
]}
